PARAMETER MEASURED: melting point

CNC(=O)CNC(=O)c1ccc(C)c(-n2c(C)cc(OCc3ccccc3CNC(=O)Nc3cc(C(C)(C)C)nn3-c3ccc(O)c(Cl)c3)c(Cl)c2=O)c1	209 to 211 °C
CNC(=O)c1ccc(C)c(-n2c(C)cc(OCc3ccccc3CNC(=O)Nc3cc(C(C)(C)C)nn3-c3ccc(O)c(Cl)c3)c(Cl)c2=O)c1	201 to 203 °C
COC(=O)c1ccc(C)c(-n2c(C)cc(OCc3ccc(F)cc3CNC(=O)Nc3cc(C(C)(C)C)nn3-c3ccc(O)cc3)c(Cl)c2=O)c1	188 to 190 °C
CNC(=O)c1ccc(C)c(-n2c(C)cc(OCc3ccc(F)cc3CNC(=O)Nc3cc(C(C)(C)C)nn3-c3ccc(O)c(Cl)c3)c(Cl)c2=O)c1	177 to 180 °C
COCCNC(=O)c1ccc(C)c(-n2c(C)cc(OCc3ccccc3CNC(=O)Nc3cc(C(C)(C)C)nn3-c3ccc(Cl)c(O)c3)c(Cl)c2=O)c1	182 to 183 °C

# ---- query molecule ----
melting point for `Cc1ccc(C(=O)NCCN(C)C)cc1-n1c(C)cc(OCc2ccc(F)cc2CNC(=O)Nc2cc(C(C)(C)C)nn2-c2ccc(Cl)c(O)c2)c(Cl)c1=O` ?
177 to 178 °C

====

IC50: recorded values
- SYSTEM TESTED: p38α (Homo sapiens)
- Sequence (Q16539 whole entry): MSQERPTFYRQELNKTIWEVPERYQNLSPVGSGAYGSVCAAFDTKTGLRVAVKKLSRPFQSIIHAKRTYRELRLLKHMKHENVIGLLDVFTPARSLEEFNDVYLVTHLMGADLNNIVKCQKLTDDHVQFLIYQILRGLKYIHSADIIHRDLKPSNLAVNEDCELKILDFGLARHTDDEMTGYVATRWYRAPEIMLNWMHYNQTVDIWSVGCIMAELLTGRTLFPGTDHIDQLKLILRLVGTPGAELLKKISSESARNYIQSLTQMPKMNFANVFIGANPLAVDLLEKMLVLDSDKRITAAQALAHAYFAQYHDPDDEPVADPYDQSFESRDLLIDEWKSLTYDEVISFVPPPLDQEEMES
- TEST METHOD NOTES: p38α/MK2 cascade assay
- Format: biochemical
- CONDITION DESCRIPTION: Table 2; same p38α/MK2 cascade assay; 40 minutes preincubation; read-out: p38a/MK2 Cascade 40 min Pre-Incuabtion (% Inhibition): IC50
The reply should contain only the number, in nM.

# example entries with known answers
COc1ccc(Cn2c(C)cc(OCc3ccccc3CNC(=O)Nc3cc(C(C)(C)C)nn3-c3cccc(OCCO)c3)c(C)c2=O)cc1C#N	8.4
COc1ccc(Cn2c(C)cc(OCc3ccccc3CNC(=O)Nc3cc(C(C)(C)C)nn3-c3cccc(O)c3)c(C)c2=O)cc1C#N	6

# ---- query molecule ----
IC50 for `COc1cc(Cn2c(C)cc(OCc3ccccc3CNC(=O)Nc3cc(C(C)(C)C)nn3-c3cccc(OCCO)c3)c(Cl)c2=O)ccc1Cl` ?
7.2

====

- SYSTEM TESTED: p38α (Homo sapiens)
- TEST METHOD NOTES: p38α/MK2 cascade assay
- Assay type: biochemical
- CONDITION DESCRIPTION: Table 1; inhibitors preincubated with p38α for 40 minutes; phosphorylation of Hsp27 peptide by MK-2, Caliper LabChip 3000; read-out: p38a/MK2 Cascade 40 min Pre-Incuabtion (% Inhibition): IC50
pIC50: recorded values
// scale note: pIC50 = -log10(conc_M); give the bare number

COc1cccc(Cn2c(C)cc(OCc3ccc(F)cc3CNC(=O)Nc3cc(C(C)(C)C)nn3-c3cccc(OC)c3)cc2=O)c1 [Example 35]	7.37
CNC(=O)c1ccc(C)c(-n2c(C)cc(OCc3ccc(F)cc3CNC(=O)Nc3cc(C(C)(C)C)nn3-c3cccc(Cl)c3)c(Cl)c2=O)c1 [Example 194]	8.61
Cc1ccc(C(=O)NCCO)cc1-n1c(C)cc(OCc2ccc(F)cc2CNC(=O)Nc2cc(C(C)(C)C)nn2-c2cccc(Cl)c2)c(Cl)c1=O [Example 195]	8.41

pIC50 for Cc1ccc(-n2nc(C(C)(C)C)cc2NC(=O)NCc2cc(F)ccc2COc2cc(C)n(-c3cc(C(=O)O)ccc3C)c(=O)c2Cl)cc1 [Example 186] ?
8.34

pIC50 for COc1cccc(-n2nc(C(C)(C)C)cc2NC(=O)NCc2ccccc2COc2cc(C)n(Cc3ccccc3)c(=O)c2C)c1 [Example 128-B] ?
7.90

pIC50 for Cc1cc(OCc2ccccc2CNC(=O)Nc2cc(C(C)(C)C)nn2-c2cccc(F)c2)c(Br)c(=O)n1Cc1ccccc1 [Example 103] ?
8.58
